Each record here notes measured IC50.
System: colon cancer (HT-29) cell line
protocol summary: Antiproliferative MTT assay, HT-29
Type: cell-based
test context: Homo sapiens; HT-29, MTT; read-out: Antiproliferative Activity IC50 ± SEM, HT-29
readout: IC50 (nM)

>>> endpoint_value("COc1ccc(-c2cc(-c3ccc(OC)c(OC)c3)n(CC(=O)Nc3ccc(C4=NNC(c5ccccc5)C4)cc3)c(=O)c2C#N)cc1OC (centres unmarked)")
32
>>> endpoint_value("N#Cc1c(-c2ccc(Cl)cc2)cc(-c2ccc(Cl)cc2)n(CC(=O)Nc2ccc(C3=NNC(c4ccc(Cl)cc4)C3)cc2)c1=O (centres unmarked)")
32
>>> endpoint_value("N#Cc1c(-c2ccc(Cl)cc2)cc(-c2ccc(Cl)cc2)n(CC(=O)Nc2ccc(C3=NNC(c4ccccc4)C3)cc2)c1=O (centres unmarked)")
28
>>> endpoint_value("N#Cc1c(-c2ccc(Cl)cc2)cc(-c2ccc(Cl)cc2)n(CC(=O)Nc2ccc(C3=NNC(c4ccc(Cl)cc4Cl)C3)cc2)c1=O (centres unmarked)")
38
>>> endpoint_value("COc1ccc(-c2cc(-c3ccc(OC)c(OC)c3)n(CC(=O)Nc3ccc(C4=NNC(c5ccc(OC)c(OC)c5)C4)cc3)c(=O)c2C#N)cc1OC (centres unmarked)")
24
>>> endpoint_value("Cc1ccc(C2CC(c3ccc(NC(=O)Cn4c(-c5ccc(Cl)cc5)cc(-c5ccc(Cl)cc5)c(C#N)c4=O)cc3)=NN2)c(C)c1 (centres unmarked)")
36
>>> endpoint_value("COc1ccc(-c2cc(-c3ccc(OC)c(OC)c3)c(C#N)c(=O)n2CC(=O)Nc2ccc(C3=NNC(c4ccc(OC)c(OC)c4)C3)cc2)cc1 (centres unmarked)")
28
>>> endpoint_value("COc1ccc(C2CC(c3ccc(NC(=O)Cn4c(-c5ccc(Cl)cc5)cc(-c5ccc(Cl)cc5)c(C#N)c4=O)cc3)=NN2)cc1OC (centres unmarked)")
30
>>> endpoint_value("COc1ccc(C2CC(c3ccc(NC(=O)Cn4c(-c5ccc(Cl)cc5)cc(-c5ccc(Cl)cc5)c(C#N)c4=O)cc3)=NN2)cc1 (centres unmarked)")
42
>>> endpoint_value("COc1ccc(C2CC(c3ccc(NC(=O)Cn4c(-c5ccc(OC)c(OC)c5)cc(-c5ccc(OC)c(OC)c5)c(C#N)c4=O)cc3)=NN2)cc1 (centres unmarked)")
26
>>> endpoint_value("C#Cc1cccc(Nc2ncnc3cc(OCCOC)c(OCCOC)cc23)c1 [Erlotinib, reference compound]")
30
